Target: Electrophorus electricus AChE (EeAChE) (Electrophorus electricus)
Construct: purified AChE from Electrophorus electricus (Type V-S, Sigma-Aldrich); purchased Sigma-Aldrich Type V-S
Sequence (O42275 24-633): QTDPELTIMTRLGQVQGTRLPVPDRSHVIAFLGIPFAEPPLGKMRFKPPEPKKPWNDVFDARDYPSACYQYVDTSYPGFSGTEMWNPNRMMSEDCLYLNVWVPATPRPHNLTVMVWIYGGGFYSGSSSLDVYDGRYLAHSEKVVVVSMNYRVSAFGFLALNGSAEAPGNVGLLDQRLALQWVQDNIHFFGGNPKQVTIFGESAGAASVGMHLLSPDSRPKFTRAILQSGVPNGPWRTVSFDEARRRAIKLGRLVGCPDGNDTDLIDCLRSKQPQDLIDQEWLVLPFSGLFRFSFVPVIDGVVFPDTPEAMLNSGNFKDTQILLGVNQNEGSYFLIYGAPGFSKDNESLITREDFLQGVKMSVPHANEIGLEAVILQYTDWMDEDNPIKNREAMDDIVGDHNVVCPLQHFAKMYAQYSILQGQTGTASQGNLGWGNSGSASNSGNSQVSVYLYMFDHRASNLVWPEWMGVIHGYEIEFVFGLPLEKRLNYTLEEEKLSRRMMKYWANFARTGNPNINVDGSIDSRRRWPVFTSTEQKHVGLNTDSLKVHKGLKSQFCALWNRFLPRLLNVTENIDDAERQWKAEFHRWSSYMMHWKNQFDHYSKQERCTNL
Assay: Inhibition of EeAChE (Ellman's assay)
Format: biochemical
Conditions: mean ± SEM, at least three independent experiments
pIC50: −log10 of the molar value.
quantity: pIC50

COc1cccc(C2c3ccc4ccccc4c3Oc3nc4n(c(=O)c32)CCCCC4)c1 (stereo not drawn) [4Bc] ... 6.71
COc1cccc(C2c3ccc4ccccc4c3Oc3nc4n(c(=O)c32)CCC4)c1 (stereo not drawn) [4Ba] ... 6.49
O=c1c2c(nc3n1CCC3)Oc1c(ccc3ccccc13)C2c1ccccc1 (stereo not drawn) [4Aa] ... 6.50
Cc1ccc(C2c3ccc4ccccc4c3Oc3nc4n(c(=O)c32)CCCCC4)cc1 (stereo not drawn) [4Cc] ... 6.76
COc1cccc(C2c3c(nc4n(c3=O)CCCCC4)Oc3ccc4ccccc4c32)c1 (stereo not drawn) [3Bc] ... 6.97
Cc1ccc(C2c3c(nc4n(c3=O)CCCCC4)Oc3ccc4ccccc4c32)cc1 (stereo not drawn) [3Cc] ... 6.78
COc1cccc(C2c3c(nc4n(c3=O)CCCC4)Oc3ccc4ccccc4c32)c1 (stereo not drawn) [3Bb] ... 7.52
O=c1c2c(nc3n1CCC3)Oc1ccc3ccccc3c1C2c1ccccc1 (stereo not drawn) [3Aa] ... 6.29
Cc1ccc(C2c3c(nc4n(c3=O)CCC4)Oc3ccc4ccccc4c32)cc1 (stereo not drawn) [3Ca] ... 6.95
